test: yeast display, Sf9 membrane polyspecificity reagent, FACS + sequencing; frameworks hold sequencing errors
property measured: polyreactivity (PSR sort gate)

1. QVQLVESGGGLVQAGGSLRLSCAASGRIVRNAMGWYRQAPGKERELVAAISRSGGSTYDADSVKGRFTISRDNAKNTVYLQMNSLKPEDTAVYYCAKRSTSQSLQVEYWGQGTQVTVSS
high polyreactivity
2. QVQLVESGGGLVQAGGSLRLSCAASGFTFVTNAMGWYRQAPGKERELVAAISWNDDDTYYADSVKGRFTISRDNAKNTVYLQMNSLKPEDTAVYYCAKDEYRVKWWGWDIYDYWGQGTQVTVSS
low polyreactivity
3. QVQLVESGGGLVQAGGSLRLSCAASGFTFVSNAMGWYRQAPGKERELVAVISSGGSTTYADSVKGRFTISRDNAKNTVYLQMNSLKPEDTAVYYCATTNYQDSYEGGDYWGQGTQVTVSS
low polyreactivity
4. QVQLVESGGGLVQAGGSLRLSCAASGFTCGSYTMGWYRQAPGKERELVAVISRSGSSTYYADSVKGRFTISRDNAKNTVYLQMNSLKPEDTAVYYCNADYSRLGYDYWGQGTQVTVSS
high polyreactivity
5. QVQLVESGGGLVQAGGSLRLSCAASGSTFWPNAMGWYRQAPGKERELVAGITTSSGSTFYADSVKGRFTISRDNAKNTVYLQMNSLKPADTAVYYCNARVRRRRYKYDYWGQGTQVTVSS
high polyreactivity
